# maps each entry to its Ki
- TARGET_OF_ASSAY: α2 -adrenergic receptors
- MEASUREMENT_PARAMETERS: rat brain cortex, [3H] rauwolscine; read-out: KIα2 (dissociation constant)
Counter-ions that a name gives are not always drawn.
API: value field is a number in nM; no unit string.

Below are worked cases with known answers.
COMPOUND	QUANTITY_UNIT	ENDPOINT_VALUE
Clc1cccc(Cl)c1N=C1NCCN1 [Clonidine, clonidine, reference compound]	nM	34
CNCC1CCc2c1ccc(O)c2O (centres unmarked) [Example 10, hydrobromide]	nM	6
CNC[C@H](O)c1ccc(O)c(O)c1 [Epinephrine, epinephrine, reference compound]	nM	53
CN(C)CC1CCc2c1ccc(O)c2O (centres unmarked) [Example 6, hydrobromide]	nM	25

Field: next compound
Ask | Provide only the value of recorded Ki for NCC1CCc2c1ccc(O)c2O (centres unmarked)
Reply | 15
